- assay overview: Plasma concentration of RIF after a single oral dose
- Format: in vivo, rats
- condition info: rat, 30 mg/kg
attribute measured: concentration at 2 h (µM)
Write it as a number; the unit µM goes unstated.

Return concentration at 2 h (reported value) for this molecule: CO[C@H]1/C=C/O[C@@]2(C)Oc3c(C)c(O)c4c(O)c(c(/C=N/N5CCN(C)CC5)c(O)c4c3C2=O)NC(=O)/C(C)=C\C=C\[C@H](C)[C@H](O)[C@@H](C)[C@@H](O)[C@@H](C)[C@H](OC(C)=O)[C@@H]1C
11.6

###

- assay overview: Plasma and hepatic concentration of KTZ after a single oral dose
- Format: in vivo, rats
- condition info: rat, plasma, po, 20 mg/kg
attribute measured: concentration at 1 h (µM)
Write it as a number; the unit µM goes unstated.

Return concentration at 1 h (reported value) for this molecule: CC(=O)N1CCN(c2ccc(OCC3COC(Cn4ccnc4)(c4ccc(Cl)cc4Cl)O3)cc2)CC1 (stereo not shown)
23.9
